- TARGET_UNDER_TEST: PKR T384W (Homo sapiens, UniProt P30613, T384W)
- Sequence (P30613 whole entry T384W): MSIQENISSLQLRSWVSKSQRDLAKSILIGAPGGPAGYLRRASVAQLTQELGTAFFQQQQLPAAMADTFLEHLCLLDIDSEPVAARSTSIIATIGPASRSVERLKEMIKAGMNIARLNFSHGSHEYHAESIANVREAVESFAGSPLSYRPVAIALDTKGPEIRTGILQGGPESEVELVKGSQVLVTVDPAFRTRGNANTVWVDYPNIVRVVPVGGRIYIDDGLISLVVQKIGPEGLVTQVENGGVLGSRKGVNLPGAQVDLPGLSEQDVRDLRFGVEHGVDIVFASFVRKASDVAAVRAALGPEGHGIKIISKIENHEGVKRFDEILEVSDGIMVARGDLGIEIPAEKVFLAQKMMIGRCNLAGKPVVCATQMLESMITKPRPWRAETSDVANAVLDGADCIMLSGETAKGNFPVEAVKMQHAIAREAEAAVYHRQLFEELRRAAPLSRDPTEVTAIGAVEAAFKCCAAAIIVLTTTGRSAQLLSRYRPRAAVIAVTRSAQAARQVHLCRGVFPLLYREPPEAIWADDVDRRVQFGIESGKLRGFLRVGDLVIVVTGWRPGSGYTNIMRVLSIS
- EXPERIMENT_SUMMARY: PKR T384W Single Point Percent Activation Assay
- Assay type: biochemical
- MEASUREMENT_SETUP: read-out: Act. % 384W
- Procedure: PKR T384W Single Point Percent Activation Assay A compound described herein was diluted with DMSO and tested at 1 μM concentration. The enzyme was diluted in 1× Buffer: (100 mM KCl, 50 mM Tris 7.5, 5 mM MgCl2, 1 mM DTT, 0.03% BSA). 2 μL of compound solution was first added into wells, and then 180 μL enzyme solution was added. […] 20 μL ADP was added to start the assay and assay output was evaluated using OD340 at SpectraMax. […]
activation at 1 µM values for the compounds below.

Recorded results for 6 compounds are shown here.
{"columns": ["COMPOUND", "TARGET_UNDER_TEST", "MEASUREMENT_LABEL", "RESULT"],
 "data": [
  ["CC1CN(Cc2cc(F)cc(F)c2F)CC(C)N1C(=O)c1ccc(NS(=O)(=O)c2cccc3cccnc23)cc1 (stereo not drawn)", "PKR T384W (Homo sapiens, UniProt P30613, T384W)", "activation at 1 µM", "101 to 500%"],
  ["CC1CN(Cc2ccc(Cl)c(F)c2)CC(C)N1C(=O)c1ccc(NS(=O)(=O)c2cccc3cccnc23)cc1 (stereo not drawn)", "PKR T384W (Homo sapiens, UniProt P30613, T384W)", "activation at 1 µM", "101 to 500%"],
  ["O=C(c1ccc(NS(=O)(=O)c2cccc3cccnc23)cc1)N1CCN(Cc2ccc(F)cc2)c2ccccc21", "PKR T384W (Homo sapiens, UniProt P30613, T384W)", "activation at 1 µM", "1 to 100%"],
  ["O=C1CN(Cc2cc(F)cc(F)c2)CCN1C(=O)c1ccc(NS(=O)(=O)c2cccc3cccnc23)cc1", "PKR T384W (Homo sapiens, UniProt P30613, T384W)", "activation at 1 µM", "101 to 500%"],
  ["CC(c1c(F)cc(F)cc1F)N1CCN(C(=O)c2ccc(NS(=O)(=O)c3cccc4cccnc34)cc2)[C@H](C)C1 (stereo partly drawn)", "PKR T384W (Homo sapiens, UniProt P30613, T384W)", "activation at 1 µM", "101 to 500%"],
  ["CC1CN(Cc2cc(F)c(F)cc2F)CC(C)N1C(=O)c1ccc(NS(=O)(=O)c2cccc3cccnc23)cc1 (stereo not drawn)", "PKR T384W (Homo sapiens, UniProt P30613, T384W)", "activation at 1 µM", "1 to 100%"]
]}

Lookup: Quick check: activation at 1 µM of C[C@@H]1CN(CC2CCCCO2)CCN1C(=O)c1ccc(NS(=O)(=O)c2cccc3cccnc23)cc1 (stereo partly drawn) ?
Found: 101 to 500%

Lookup: Quick check: activation at 1 µM of CC1CN(CC2CCCCC2)CC(C)N1C(=O)c1ccc(NS(=O)(=O)c2cccc3cccnc23)cc1 (stereo not drawn) ?
Found: 101 to 500%

Lookup: Quick check: activation at 1 µM of COc1cccc(CN2CCN(C(=O)c3ccc(NS(=O)(=O)c4cccc5cccnc45)cc3)[C@H](C)C2)c1OC ?
Found: 101 to 500%
